Test: gradient 5% acetonitrile 3 min, to 50% in 2 min, to 85% in 15 min, held 3 min, 100 µL/min
Conditions: column: Zorbax Extend-C18 2.1 x 50 mm; eluents: water / acetonitrile, 0.1% formic acid
quantity.kind: RP-LC retention time (s)

Here is how some compounds turned out for RP-LC retention time.
Cc1nn(C)c2nc(OCC(=O)Nc3ccccc3Cl)cc(C(F)(F)F)c12 = 1130
COc1cc(-c2nnc(-c3ccc(C)c(S(=O)(=O)N4CCCCC4)c3)o2)cc(OC)c1OC = 1090
Cc1ccc(S(=O)(=O)N2CCCC(CCC(=O)NC3CCS(=O)(=O)C3)C2)cc1 (configuration not stated) = 765
Cc1nn(C)cc1CN(C)C(=O)NC1CCCCC1 = 611
COc1ccc(NC(=O)C2CCCN(c3nc4ccccc4nc3OC)C2)cc1OC (configuration not stated) = 982

1: CC(C(=O)N1CCCN(c2cc(=O)n(C(C)C)c(=O)n2C(C)C)CC1)N1C(=O)COc2ccccc21 (configuration not stated)
2: O=C(Cn1ccnc1)N1CCCC(OCc2nc(C3CC3)no2)C1 (configuration not stated)
*Q* Given 1 and given 2 , which shows the smaller recorded RP-LC retention time? Identify your selection by its label.
*A* 2

---

Assay: gradient 5% acetonitrile 3 min, to 50% in 2 min, to 85% in 15 min, held 3 min, 100 µL/min
Settings: column: Zorbax Extend-C18 2.1 x 50 mm; eluents: water / acetonitrile, 0.1% formic acid
quantity.kind: RP-LC retention time (s)

Here is how some compounds turned out for RP-LC retention time.
CC(=O)Nc1ccc(NC(=O)c2nn(-c3ccccc3)c3ccccc3c2=O)cc1 = 714
Cc1sc2cc(C(=O)N3CCCC3)[nH]c2c1CN1CCCCC1 = 646
Cc1ccc(N(C)C(=O)CN(C)S(=O)(=O)c2ccc3c(c2)CCCC(=O)N3)cc1 = 725

I: CCC(CC)C(=O)Nc1nc(-c2ccc3c(c2)N(CC)C(=O)CO3)c(C)s1
II: CNc1cc(C)nc2c(-c3ccc(Cl)cc3)cnn12
*Q* # returns the entry with the larger RP-LC retention time; inputs I and II Identify your selection by its label.
*A* I

P: COc1ccc(C2C(C(=O)C3CC3)=C(O)C(=O)N2CCCOC(C)C)cc1OC (configuration not stated)
Q: Cc1ccc(-n2c(=O)c3sccc3n(Cc3nc(-c4cccc(C(F)(F)F)c4)no3)c2=O)cc1
*Q* Given P and given Q , which shows the smaller recorded RP-LC retention time? Identify your selection by its label.
*A* P

---

Test: gradient 5% acetonitrile 3 min, to 50% in 2 min, to 85% in 15 min, held 3 min, 100 µL/min
Conditions: column: Zorbax Extend-C18 2.1 x 50 mm; eluents: water / acetonitrile, 0.1% formic acid
quantity.kind: RP-LC retention time (s)

O=C(Cc1csc(SCc2ccncc2)n1)NCc1ccc2c(c1)OCO2 = 568

a: CCOC(=O)C(C)(C)Sc1nnc(N2CCN(c3ccccc3)CC2)s1
b: O=C(CCCn1c(=O)c2cccn2c2ccc(F)cc21)N1CCN(c2ccccn2)CC1
*Q* # returns the entry with the larger RP-LC retention time; inputs a and b Identify your selection by its label.
*A* a

P: Cn1c(=O)c2c(nc3n(-c4ccccc4N)c(-c4ccc(Cl)cc4)cn23)n(C)c1=O
Q: CCn1ccc(C(=O)N2CCN(c3nc(CN4CCC(C)CC4)cs3)CC2)n1
*Q* # returns the entry with the larger RP-LC retention time; inputs P and Q Identify your selection by its label.
*A* P
(P: 883 s, Q: 613 s)

---

Assay: gradient 5% acetonitrile 3 min, to 50% in 2 min, to 85% in 15 min, held 3 min, 100 µL/min
Conditions: column: Zorbax Extend-C18 2.1 x 50 mm; eluents: water / acetonitrile, 0.1% formic acid
quantity.kind: RP-LC retention time (s)

Here is how some compounds turned out for RP-LC retention time.
COc1ccc(OC)c(-c2[nH]ncc2CN2CC(F)(F)C[C@H]2CN2CCOCC2)c1 = 606
CC(=O)Nc1ccc(-c2noc(C3CCCN(C(=O)c4ccoc4)C3)n2)cc1 (configuration not stated) = 731
COc1ccc(C(=O)NC2CCN(c3cc(-c4cccs4)[nH]n3)C2)c(C)c1 (configuration not stated) = 712
Cc1ccc2cc(CCC(=O)N3CCCN(c4ncccn4)CC3)c(=O)[nH]c2c1 = 676
Cc1cccc(NC(=O)N2CCc3nc(-c4ccc(Cl)cc4)ncc3C2)c1C = 660

P: CCn1c(N2CCCC(C(=O)NCC3CCN(Cc4cc(C)ccc4C)CC3)C2)cc(=O)n(C)c1=O (configuration not stated)
Q: Cc1ccc(Cl)cc1-n1ncc2c(=O)n(Cc3nc(-c4cccc(F)c4)no3)cnc21
*Q* # returns the entry with the larger RP-LC retention time; inputs P and Q Identify your selection by its label.
*A* Q
(Q: 1210 s, P: 665 s)

---

Experiment: gradient 5% acetonitrile 3 min, to 50% in 2 min, to 85% in 15 min, held 3 min, 100 µL/min
Conditions: column: Zorbax Extend-C18 2.1 x 50 mm; eluents: water / acetonitrile, 0.1% formic acid
quantity.kind: RP-LC retention time (s)

CCOc1ccc(CCNC(=O)c2nc(CCS(=O)(=O)c3ccccc3)no2)cc1OCC = 900
CN(C)C(=O)c1ccc2c(c1)nnn2CCNC(=O)Nc1cccc(Cl)c1 = 684
Cc1nc(NS(=O)(=O)c2ccccc2)sc1C(=O)NCc1c(F)cccc1F = 718
Cc1ccc(-n2nc(C(=O)Nc3ccc4c(c3)OCCO4)c3ncn(C)c(=O)c32)cc1 = 887
COc1cc(Cl)c(C)cc1NC(=O)CN1C(=O)NC2(CCCCC2)C1=O = 884
Cc1ccc(S(=O)(=O)N2CCC(N3CC(F)(F)C[C@H]3CN(C)C)CC2)c(C)c1 = 715
O=C1CC(C(=O)N(Cc2cccnc2)c2nc3ccccc3s2)CN1c1ccccc1 (configuration not stated) = 695

---

Assay: gradient 5% acetonitrile 3 min, to 50% in 2 min, to 85% in 15 min, held 3 min, 100 µL/min
Settings: column: Zorbax Extend-C18 2.1 x 50 mm; eluents: water / acetonitrile, 0.1% formic acid
quantity.kind: RP-LC retention time (s)

COc1ccc(F)c(F)c1C(=O)c1cnc(NC2CCN(S(C)(=O)=O)CC2)nc1N = 784
O=C(Nc1cccc(F)c1)C1CCN(S(=O)(=O)c2cc(C(=O)N3CCCC3)cs2)CC1 = 829
CC(C)c1ccc(S(=O)(=O)N2CCc3c(c(-c4nnc(-c5ccc(F)cc5)o4)nn3C)C2)cc1 = 1100
COc1cccc(N2CCN(c3ccnc(SCC(=O)NCCC4=CCCCC4)n3)CC2)c1 = 862
CCCc1noc(-c2ccc(-n3ncc(C(=O)N4CCC(C)CC4)c3C)nc2)n1 = 1130
CC(C)(C)c1ccc(-c2nc(C3CC(=O)N(c4ccc(Cl)cc4)C3)no2)cc1 (configuration not stated) = 861

A: CCc1nc(OCC(=O)Nc2ccccc2Cl)c2ccccc2n1
B: CN(CC(=O)Nc1cccnc1)c1nc2ccccc2s1
*Q* # returns the entry with the larger RP-LC retention time; inputs A and B Identify your selection by its label.
*A* A
(A: 831 s, B: 568 s)

---

Test: gradient 5% acetonitrile 3 min, to 50% in 2 min, to 85% in 15 min, held 3 min, 100 µL/min
Conditions: column: Zorbax Extend-C18 2.1 x 50 mm; eluents: water / acetonitrile, 0.1% formic acid
quantity.kind: RP-LC retention time (s)

CCN1CCn2cc(S(=O)(=O)Nc3ccccc3Cl)cc2C1=O = 706
Clc1ccccc1-n1ncc2c(NCc3ccco3)ncnc21 = 719
Cc1cc(=O)n(CC(=O)Nc2cccc(Cl)c2)c(N2CCCCC2)n1 = 701
COc1ccc(-c2nnc(COc3ccc(NC(=O)C4CCN(C(C)=O)CC4)cc3)o2)cc1 = 703

---

Experiment: gradient 5% acetonitrile 3 min, to 50% in 2 min, to 85% in 15 min, held 3 min, 100 µL/min
Details: column: Zorbax Extend-C18 2.1 x 50 mm; eluents: water / acetonitrile, 0.1% formic acid
quantity.kind: RP-LC retention time (s)

CC(=O)c1ccc(NC(=O)Cn2c(=O)nc(NC3CCCC3)c3ccccc32)cc1 = 635
Cc1ccc2c(C(=O)O)cc(NC(=O)C(C)C)cc2n1 = 563
O=C(Nc1cnc(-c2ccc(Cl)cc2)nc1)C1CCCO1 (stereo unspecified) = 910

P: Cc1ccc(NC(=O)N2CCc3c(c(-c4nc(C5CC5)no4)nn3C)C2)c(C)c1
Q: Cc1ccc2c(C(=O)O)cc(NC(=O)C3CCC3)cc2n1
*Q* # returns the entry with the larger RP-LC retention time; inputs P and Q Identify your selection by its label.
*A* P
(P: 834 s, Q: 574 s)

---

Test: gradient 5% acetonitrile 3 min, to 50% in 2 min, to 85% in 15 min, held 3 min, 100 µL/min
Conditions: column: Zorbax Extend-C18 2.1 x 50 mm; eluents: water / acetonitrile, 0.1% formic acid
quantity.kind: RP-LC retention time (s)

O=C(Cn1cccc(-c2nc(-c3ccccc3)no2)c1=O)Nc1ccc(F)cc1F = 864
CN1CCN(CCNC(=O)c2nn(-c3ccc(Cl)cc3)c3c(=O)n(C)cnc23)CC1 = 602
CCCN(CC1CCOC1)C(=O)Nc1ccccc1Cl (stereo not drawn) = 846
